Origin of the recorded values: patent US20240360228A1

TARGET_UNDER_TEST: T1, human CCR8 (human, UniProt P51685 1-355)
T1 construct: Native CCR8 on human PBMC (CCR8+ CD3+ or CCR8+ CD4+ lymphocytes); also called chemokine (C-C motif) receptor 8
ASSAY_REMARKS: flow blocking, PBMC CCR8+CD4+; competitor PE-AB1
MEASUREMENT_KIND: % Positive cells

Solved entries:
- BINDER: "AB5 (antibody, V domains shown, Hybridoma monoclonal; Same VH/VL entries as AB6; also called antibody 5; clone 5) VH: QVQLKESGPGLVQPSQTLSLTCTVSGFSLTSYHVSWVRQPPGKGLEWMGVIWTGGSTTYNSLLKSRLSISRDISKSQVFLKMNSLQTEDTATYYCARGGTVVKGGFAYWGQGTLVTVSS VL: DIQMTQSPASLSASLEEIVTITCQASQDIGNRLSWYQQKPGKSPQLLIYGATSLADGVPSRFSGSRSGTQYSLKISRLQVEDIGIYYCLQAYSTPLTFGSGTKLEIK"
  % Positive cells: "0.43%"
- BINDER: "AB15 (antibody, V domains shown, Hybridoma monoclonal; Same VH/VL entries as AB14; also called antibody 15; clone 15) VH: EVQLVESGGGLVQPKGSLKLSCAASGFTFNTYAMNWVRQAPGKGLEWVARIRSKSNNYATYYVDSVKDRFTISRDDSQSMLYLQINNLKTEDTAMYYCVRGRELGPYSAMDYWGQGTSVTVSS VL: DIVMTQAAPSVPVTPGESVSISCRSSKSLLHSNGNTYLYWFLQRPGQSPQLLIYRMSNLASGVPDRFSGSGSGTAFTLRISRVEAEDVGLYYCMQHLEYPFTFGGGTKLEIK"
  % Positive cells: "2.15%"

Recorded result, AB11 (antibody, V domains shown, Hybridoma monoclonal; also called antibody 11; clone 11) VH: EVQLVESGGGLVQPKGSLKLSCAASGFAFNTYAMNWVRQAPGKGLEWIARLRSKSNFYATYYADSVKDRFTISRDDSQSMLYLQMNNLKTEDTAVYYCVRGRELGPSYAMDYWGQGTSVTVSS VL: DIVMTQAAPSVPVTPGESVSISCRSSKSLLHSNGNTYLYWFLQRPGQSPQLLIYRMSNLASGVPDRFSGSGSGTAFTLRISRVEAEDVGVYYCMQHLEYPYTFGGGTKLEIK , % Positive cells: 2.04%
